Record form. Attribute: CC50 at 48 h. Fill in for each entry.
- experiment.summary: MTS tetrazolium reduction cell viability assay
- condition: rat, rat mesangial cells (1097/IRMC cells), TGF-β1 stimulated, CC50 (μM), vs 1% DMSO vehicle
Lab book: enter the figure in µM, no units written.

Task: What CC50 at 48 h value was documented for this molecule, COc1cc(/C=C/C(=O)Nc2ccccc2C(=O)O)ccc1CN1CCOCC1 ?
Output: 691

Task: What CC50 at 48 h value was documented for this molecule, C#CCOc1ccc(/C=C/C(=O)Nc2ccccc2C#N)c(OCCN2CCOCC2)c1OC ?
Output: 109

Task: What CC50 at 48 h value was documented for this molecule, COc1ccc(/C=C/C(=O)Nc2ccccc2C(=O)O)cc1OCCc1ccncc1 ?
Output: 152

Task: What CC50 at 48 h value was documented for this molecule, COc1cc(/C=C/C(=O)Nc2ccccc2C(=O)O)ccc1OCc1cnn(C)c1 ?
Output: 226

Task: What CC50 at 48 h value was documented for this molecule, C#CCOc1ccc(/C=C/C(=O)Nc2ccccc2C#N)c(OCCCN(C)C)c1OC ?
Output: 12.1

Task: What CC50 at 48 h value was documented for this molecule, COc1cc(/C=C/C(=O)N2CCOc3ccccc32)ccc1OC1CCN(C)C1 (stereo not drawn) ?
Output: 25.5

Task: What CC50 at 48 h value was documented for this molecule, COc1ccc(/C=C/C(=O)Nc2ccccc2C(=O)O)cc1OCc1cccnc1 ?
Output: 79.4

Task: What CC50 at 48 h value was documented for this molecule, C#CCOc1ccc(C2CC2C(=O)N2CCOc3ccccc32)cc1OC (stereo not drawn) ?
Output: 74.8

Task: What CC50 at 48 h value was documented for this molecule, COc1ccc(/C=C/C(=O)Nc2ccccc2C(=O)O)cc1CC1CC1 ?
Output: 25.1

Task: What CC50 at 48 h value was documented for this molecule, C#CCOc1ccc(/C=C/C(=O)Nc2ccccc2C(=O)NCCN2CCN(C)CC2)cc1OC ?
Output: 37.3

Task: What CC50 at 48 h value was documented for this molecule, COc1ccc(C2CC2C(=O)Nc2ccc(F)cc2)c(OCCN(C)C)c1OC (stereo not drawn) ?
Output: 234

Task: What CC50 at 48 h value was documented for this molecule, COc1cc(/C=C/C(=O)Nc2ccccc2C(=O)O)ccc1OCc1ccncc1 ?
Output: 266

Task: What CC50 at 48 h value was documented for this molecule, C#CCOc1ccc(/C=C/C(=O)Nc2ccccc2-c2nc(C)no2)cc1OC ?
Output: 146

Task: What CC50 at 48 h value was documented for this molecule, C#CCOc1ccc(/C=C/C(=O)N2CCC(C(=O)OC)c3ccccc32)cc1OC (stereo not drawn) ?
Output: 25.5

Task: What CC50 at 48 h value was documented for this molecule, COc1ccc(/C=C/C(=O)Nc2cccc(C#N)c2)c(OCCN(C)C)c1 ?
Output: 17.2

Task: What CC50 at 48 h value was documented for this molecule, C#CCOc1ccc(/C=C/C(=O)N2CCC(O)c3ccccc32)cc1OC (stereo not drawn) ?
Output: 48.9

Task: What CC50 at 48 h value was documented for this molecule, C#CCOc1ccc(/C=C/C(=O)Nc2cccc(C#N)c2)c(OCCN(C)C)c1OC ?
Output: 18.1

Task: What CC50 at 48 h value was documented for this molecule, COc1ccc(/C=C/C(=O)Nc2ccccc2F)c(OCCN(C)C)c1OC ?
Output: 82.9

Task: What CC50 at 48 h value was documented for this molecule, COc1ccc(/C=C/C(=O)Nc2ccccc2C#N)c(OCCN(C)C)c1 ?
Output: 35

Task: What CC50 at 48 h value was documented for this molecule, COc1cc(/C=C/C(=O)Nc2ccccc2C(=O)O)ccc1OCCc1ccncc1 ?
Output: 148

Task: What CC50 at 48 h value was documented for this molecule, CCc1cc(/C=C/C(=O)Nc2ccccc2C(=O)O)ccc1OC ?
Output: 79.7

Task: What CC50 at 48 h value was documented for this molecule, C#CCOc1ccc(/C=C/C(=O)Nc2ccccc2C(=O)NCCN(C)C)cc1OC ?
Output: 37.2

Task: What CC50 at 48 h value was documented for this molecule, C#CCOc1ccc(/C=C/C(=O)N2CCOc3ccccc32)cc1OC ?
Output: 335

Task: What CC50 at 48 h value was documented for this molecule, C#CCOc1ccc(/C=C/C(=O)Nc2ccccc2C(=O)NCC2CCOC2)cc1OC (stereo not drawn) ?
Output: 85.8

Task: What CC50 at 48 h value was documented for this molecule, COc1ccc(C2CC2C(=O)Nc2cccc(S(C)(=O)=O)c2)cc1OCc1cnn(C)c1 (stereo not drawn) ?
Output: 68.8

Task: What CC50 at 48 h value was documented for this molecule, CCc1ccc(/C=C/C(=O)Nc2ccccc2C(=O)O)cc1OC ?
Output: 37

Task: What CC50 at 48 h value was documented for this molecule, C#CCOc1ccc(/C=C/C(=O)Nc2ccccc2Cl)cc1OC ?
Output: 71.1
